molecular target: PD-L1 (UniProt Q9NZQ7); assay: SPR
Sequence (Q9NZQ7 19-238): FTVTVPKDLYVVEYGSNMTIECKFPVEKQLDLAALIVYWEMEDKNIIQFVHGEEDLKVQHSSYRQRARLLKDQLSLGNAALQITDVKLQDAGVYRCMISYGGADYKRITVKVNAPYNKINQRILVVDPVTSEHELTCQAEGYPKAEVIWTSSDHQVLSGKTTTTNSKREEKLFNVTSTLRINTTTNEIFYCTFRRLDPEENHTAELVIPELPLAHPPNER
metric-name: Kd
Units required after the number.

The following binders have reported results that may help.
Q: Tell me Kd reported for PRO1347 (37-20-B03 sc09-IF) (antibody) IQMTQSPASLSASVGDRVTITCQASQSIGTYLAWYQQKPGKPPKLLIYRAFILASGVPSRFSGSGSGTDFTLTISSLQPEDFATYYCQSNFYSDSTTIGPNAFGTGTKVTVLGGGGGSGGGGSGGGGSGGGGSEVQLVESGGGLVQPGGSLRLSCAASGFSFNSDYWIYWVRQAPGKGLEWIACIYGGSSGNTQYASWAQGRFTISRDNSKNTVYLQMNSLRAEDTAVYFCARGYVDYGGATDLWGQGTLVTVSS
Ans: 0.0109 nM

Q: Query Kd for PRO3725 (33-03-G02 Q108A_G109A A67G_F68G) (antibody) DIQMTQSPSSLSASVGDRVTITCQASQSINDYLAWYQQKPGKAPKLLIYKGGTLASGVPSRFSGSGSGTDFTLTISSLQPEDFATYYCQAAYIITDIDNVFGTGTKVTVLGGGGGSGGGGSGGGGSGGGGSQVQLQESGPGLVKPSETLSLTCKVSGFSFSSGYDMCWIRQPPGKGLEWIGCVVAGSVDITYYASWAKGRVTISVDSSKNQFSLKLSSVTAADTAVYYCARKDAYSDAFNLWGQGTLVTVSS
Ans: 491 nM

Q: Please supply the value of reported Kd for the item PRO4125 (37-20-B03 sc17 A67G_F68G) (antibody) DIQMTQSPSSLSASVGDRVTITCQASQSIGTYLAWYQQKPGKPPKLLIYRGGILASGVPSRFSGSGSGTDFTLTISSLQPEDFATYYCQSNFYSDSTTIGPNAFGTGTKVTVLGGGGGSGGGGSGGGGSGGGGSQSLVESGGGLVQPGGSLRLSCAASGFSFNSDYWISWVRQAPGKGLEWIASIYGGSSGNTQYASWAQGRFTISKDNSKNTVYLQMNSLRAEDTAVYFCARGYVDYGGATDLWGQGTLVTVSS
Ans: 0.196 nM

More entries:
Q: Supply measured Kd of PRO1434 (33-03-G02 Q108A_G109A) (antibody) DIQMTQSPSSLSASVGDRVTITCQASQSINDYLAWYQQKPGKAPKLLIYKASTLASGVPSRFSGSGSGTDFTLTISSLQPEDFATYYCQAAYIITDIDNVFGTGTKVTVLGGGGGSGGGGSGGGGSGGGGSQVQLQESGPGLVKPSETLSLTCKVSGFSFSSGYDMCWIRQPPGKGLEWIGCVVAGSVDITYYASWAKGRVTISVDSSKNQFSLKLSSVTAADTAVYYCARKDAYSDAFNLWGQGTLVTVSS in your reply.
Ans: 491 nM
